# Method notes: Tissue distribution in ICR mice (normal animals)
# Assay type: in vivo
# Reported conditions: 3 h after injection
Metric: Tissue distribution, Blood (%ID/g)

compound="COc1ccc(C[C@@](C)(N)C(=O)O)cc1[211At] [^211At-AAMT-O-Me-D]" unit_spec=%ID/g assay_value=0.38
compound="CCCOc1ccc(C[C@](C)(N)C(=O)O)cc1[211At] [^211At-AAMT-O-Pr-L]" unit_spec=%ID/g assay_value=1.30
compound="CCOc1ccc(C[C@](C)(N)C(=O)O)cc1[211At] [^211At-AAMT-O-Et-L]" unit_spec=%ID/g assay_value=0.87
compound="COc1ccc(C[C@](C)(N)C(=O)O)cc1[211At] [^211At-AAMT-O-Me-L]" unit_spec=%ID/g assay_value=1.17

###

# Method notes: Tissue distribution in ICR mice (normal animals)
# Assay type: in vivo
# Reported conditions: 3 h after injection
Metric: Tissue distribution, Kidney

compound="CCCOc1ccc(C[C@](C)(N)C(=O)O)cc1[211At] [^211At-AAMT-O-Pr-L]" assay_value="1.93 ± 0.29 %ID/g"
compound="COc1ccc(C[C@](C)(N)C(=O)O)cc1[211At] [^211At-AAMT-O-Me-L]" assay_value="1.11 ± 0.15 %ID/g"
compound="CCOc1ccc(C[C@](C)(N)C(=O)O)cc1[211At] [^211At-AAMT-O-Et-L]" assay_value="1.56 ± 0.13 %ID/g"
compound="COc1ccc(C[C@@](C)(N)C(=O)O)cc1[211At] [^211At-AAMT-O-Me-D]" assay_value="0.73 ± 0.15 %ID/g"

###

Measured Tissue distribution, Heart accompanies every entry in the list below.
# Method notes: Tissue distribution in ICR mice (normal animals)
# Format: in vivo
# Reported conditions: 3 h after injection
Metric: Tissue distribution, Heart

compound="CCOc1ccc(C[C@](C)(N)C(=O)O)cc1[211At] [^211At-AAMT-O-Et-L]" metric="Tissue distribution, Heart" assay_value="1.87 ± 0.80 %ID/g"
compound="COc1ccc(C[C@@](C)(N)C(=O)O)cc1[211At] [^211At-AAMT-O-Me-D]" metric="Tissue distribution, Heart" assay_value="0.43 ± 0.20 %ID/g"
compound="CCCOc1ccc(C[C@](C)(N)C(=O)O)cc1[211At] [^211At-AAMT-O-Pr-L]" metric="Tissue distribution, Heart" assay_value="2.16 ± 0.18 %ID/g"
compound="COc1ccc(C[C@](C)(N)C(=O)O)cc1[211At] [^211At-AAMT-O-Me-L]" metric="Tissue distribution, Heart" assay_value="0.34 ± 0.02 %ID/g"

###

# Method notes: Tissue distribution in ICR mice (normal animals)
# Format: in vivo
# Reported conditions: 1 h after injection
Entries and their measured Tissue distribution, Heart follow.
Metric: Tissue distribution, Heart

compound="CCOc1ccc(C[C@](C)(N)C(=O)O)cc1[211At] [^211At-AAMT-O-Et-L]" assay_value="6.14 ± 3.75 %ID/g"
compound="CCCOc1ccc(C[C@](C)(N)C(=O)O)cc1[211At] [^211At-AAMT-O-Pr-L]" assay_value="3.14 ± 0.20 %ID/g"
compound="COc1ccc(C[C@@](C)(N)C(=O)O)cc1[211At] [^211At-AAMT-O-Me-D]" assay_value="3.20 ± 1.26 %ID/g"
compound="COc1ccc(C[C@](C)(N)C(=O)O)cc1[211At] [^211At-AAMT-O-Me-L]" assay_value="2.01 ± 0.15 %ID/g"

###

# Tissue distribution, Spleen listing for each entry below
# Method notes: Tissue distribution in ICR mice (normal animals)
# Format: in vivo
# Reported conditions: 3 h after injection
Metric: Tissue distribution, Spleen (%ID/g)

compound="COc1ccc(C[C@](C)(N)C(=O)O)cc1[211At] [^211At-AAMT-O-Me-L]" assay_value=0.80
compound="COc1ccc(C[C@@](C)(N)C(=O)O)cc1[211At] [^211At-AAMT-O-Me-D]" assay_value=0.42
compound="CCOc1ccc(C[C@](C)(N)C(=O)O)cc1[211At] [^211At-AAMT-O-Et-L]" assay_value=2.09
compound="CCCOc1ccc(C[C@](C)(N)C(=O)O)cc1[211At] [^211At-AAMT-O-Pr-L]" assay_value=3.56

###

# Test system: PANC-1 tumor model
# Method notes: Tissue distribution in nude mice (PANC-1 tumor model)
# Type: in vivo, BALB/c nu/nu mice
# Reported conditions: nude mice (PANC-1 tumor model), 1 h after injection
Metric: Tissue distribution, Cecum (%ID/g)

compound="CCCOc1ccc(C[C@](C)(N)C(=O)O)cc1[211At] [^211At-AAMT-O-Pr-L]" experimental_system="PANC-1 tumor model" assay_value=3.07
compound="COc1ccc(C[C@@](C)(N)C(=O)O)cc1[211At] [^211At-AAMT-O-Me-D]" experimental_system="PANC-1 tumor model" assay_value=2.35
compound="CCOc1ccc(C[C@](C)(N)C(=O)O)cc1[211At] [^211At-AAMT-O-Et-L]" experimental_system="PANC-1 tumor model" assay_value=2.36
compound="COc1ccc(C[C@](C)(N)C(=O)O)cc1[211At] [^211At-AAMT-O-Me-L]" experimental_system="PANC-1 tumor model" assay_value=0.46

###

# Method notes: Tissue distribution in ICR mice (normal animals)
# Type: in vivo
# Reported conditions: 1 h after injection
This listing pairs molecules with measured Tissue distribution, Brain.
Metric: Tissue distribution, Brain (%ID/g)

molecule="COc1ccc(C[C@@](C)(N)C(=O)O)cc1[211At] [^211At-AAMT-O-Me-D]" metric="Tissue distribution, Brain" assay_value=0.15
molecule="COc1ccc(C[C@](C)(N)C(=O)O)cc1[211At] [^211At-AAMT-O-Me-L]" metric="Tissue distribution, Brain" assay_value=0.32
molecule="CCCOc1ccc(C[C@](C)(N)C(=O)O)cc1[211At] [^211At-AAMT-O-Pr-L]" metric="Tissue distribution, Brain" assay_value=0.25
molecule="CCOc1ccc(C[C@](C)(N)C(=O)O)cc1[211At] [^211At-AAMT-O-Et-L]" metric="Tissue distribution, Brain" assay_value=0.37

###

# Test system: PANC-1 tumor model
# Method notes: Tissue distribution in nude mice (PANC-1 tumor model)
# Format: in vivo, BALB/c nu/nu mice
# Reported conditions: nude mice (PANC-1 tumor model), 1 h after injection
Some compounds, each annotated with its measured Tissue distribution, Testis.
Metric: Tissue distribution, Testis (%ID/g)

compound="COc1ccc(C[C@](C)(N)C(=O)O)cc1[211At] [^211At-AAMT-O-Me-L]" metric="Tissue distribution, Testis" assay_value=0.55
compound="CCOc1ccc(C[C@](C)(N)C(=O)O)cc1[211At] [^211At-AAMT-O-Et-L]" metric="Tissue distribution, Testis" assay_value=3.29
compound="CCCOc1ccc(C[C@](C)(N)C(=O)O)cc1[211At] [^211At-AAMT-O-Pr-L]" metric="Tissue distribution, Testis" assay_value=3.56
compound="COc1ccc(C[C@@](C)(N)C(=O)O)cc1[211At] [^211At-AAMT-O-Me-D]" metric="Tissue distribution, Testis" assay_value=1.05

###

# Method notes: Tissue distribution in ICR mice (normal animals)
# Assay type: in vivo
# Reported conditions: 1 h after injection
The entries below are paired with their reported Tissue distribution, Testis.
Metric: Tissue distribution, Testis

compound="CCCOc1ccc(C[C@](C)(N)C(=O)O)cc1[211At] [^211At-AAMT-O-Pr-L]" assay_value="3.66 ± 0.14 %ID/g"
compound="COc1ccc(C[C@](C)(N)C(=O)O)cc1[211At] [^211At-AAMT-O-Me-L]" assay_value="2.31 ± 0.04 %ID/g"
compound="CCOc1ccc(C[C@](C)(N)C(=O)O)cc1[211At] [^211At-AAMT-O-Et-L]" assay_value="2.36 ± 0.28 %ID/g"
compound="COc1ccc(C[C@@](C)(N)C(=O)O)cc1[211At] [^211At-AAMT-O-Me-D]" assay_value="1.84 ± 0.23 %ID/g"

###

# Method notes: Tissue distribution in ICR mice (normal animals)
# Assay type: in vivo
# Reported conditions: 1 h after injection
Metric: Tissue distribution, Kidney (%ID/g)

compound="CCOc1ccc(C[C@](C)(N)C(=O)O)cc1[211At] [^211At-AAMT-O-Et-L]" metric="Tissue distribution, Kidney" assay_value=4.70
compound="CCCOc1ccc(C[C@](C)(N)C(=O)O)cc1[211At] [^211At-AAMT-O-Pr-L]" metric="Tissue distribution, Kidney" assay_value=2.25
compound="COc1ccc(C[C@](C)(N)C(=O)O)cc1[211At] [^211At-AAMT-O-Me-L]" metric="Tissue distribution, Kidney" assay_value=2.47
compound="COc1ccc(C[C@@](C)(N)C(=O)O)cc1[211At] [^211At-AAMT-O-Me-D]" metric="Tissue distribution, Kidney" assay_value=1.48
